# tested target: T1, murine Ang-2, His-tagged (mouse, UniProt O35608 19-496)
# T1 construct: also called mAng-2; mAng-2-His
# T1 sequence (looked up): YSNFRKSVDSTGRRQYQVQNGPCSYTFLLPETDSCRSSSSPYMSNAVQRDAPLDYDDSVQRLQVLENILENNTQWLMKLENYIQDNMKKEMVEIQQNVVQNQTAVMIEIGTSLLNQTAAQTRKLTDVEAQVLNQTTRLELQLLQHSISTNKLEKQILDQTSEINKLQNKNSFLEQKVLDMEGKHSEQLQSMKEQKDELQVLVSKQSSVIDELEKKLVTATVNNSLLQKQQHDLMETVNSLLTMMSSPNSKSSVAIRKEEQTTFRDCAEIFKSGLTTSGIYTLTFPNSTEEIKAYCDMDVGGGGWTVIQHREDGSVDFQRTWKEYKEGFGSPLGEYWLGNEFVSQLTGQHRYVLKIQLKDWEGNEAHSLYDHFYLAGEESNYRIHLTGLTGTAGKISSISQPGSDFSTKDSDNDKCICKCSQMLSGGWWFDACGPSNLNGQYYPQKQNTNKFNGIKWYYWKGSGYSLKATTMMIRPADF
# measurement description: Neutralization ELISA: antibody titrated against 1 nM Tie2-Fc on plate-bound mAng-2
measured endpoint: IC50 (nM)
# unit: nM | format: bare number

// below: answered binders
Ab 544 (antibody, human IgG1, lambda, V domains shown, also called clone 544) VH: QVQLVQSGAEVKKPGASVKVSCKASGGTFSSYAISWVRQAPGQGLEWMGGIIPIFGTANYAQKFQGRVTITADESTSTAYMELSSLRSEDTAVYYCARFESGYWGDAFDIWGQGTMVTVSS VL: SYELTQPPSVSVSPGQTARITCSGDALPKQYAYWYQQKPGQAPVLVIYKDSERPSGIPERFSGSSSGTTVTLTISGVQAEDEADYYCQSADSSHVVFGGGTKLTVLG ... 1.82
Ab 545 (antibody, human IgG1, lambda, V domains shown, Fully human IgG1 lambda; also called clone 545) VH: QVQLQESGGGVVQPGRSLRLSCAASGFTFSSYGMHWVRQAPGKGLEWVAVISYDGSNKYYADSVKGRFTISRDNSKNTLYLQMNSLRAEDTAVYYCAKGPVDFDYGDYAIDYWGQGTLVTVSS VL: QSVLTQPSSVSGAPGQRVTISCTGQSSNIGAGYDVHWYQQFPGRAPKLLIYGNSNRPSGVPDRFSGSKSGTSASLAITGLQPEDEADYYCQSYDSRLSGSVFGGGTKLTVLG ... 1.3
Ab 537 (antibody, human IgG1, V domains shown, Fully human IgG1 lambda; also called clone 537) VH: QVQLVQSGAEVKKPGSSVKVSCKASGGTFSSYAISWVRQAPGQGLEWMGGIIPILGIANYAQKFQGRVTITADKSTSTAYMELSGLGSEDTAVYYCARGSSDAAVAGMWGQGTLVTVSS VL: QSVLTQPPSVSAAPGQDVTISCSGNNSNIGNNYVSWYQQVPGTAPKLLVYDNHKRPSGISDRFSGSKSDTSATLDITGLQPGDEADYYCGTWDTSLSANWVFGGGTKLTVLR ... 0.62
Ab G1D4 (antibody, human IgG1, lambda, V domains shown, Fully human IgG1 lambda) VH: QVQLVQSGAEVKKPGSSVKVSCKASGGTFSSHAISWVRQAPGQGLEWMGRIIPILGIANYAQKFQGRVTITADESTSTAYMELSSLRSEDTAVYYCATSRLEWLLYLDYWGQGTLVTVSS VL: NFMLTQPHSVSESPGKTVIIPCTRSSGSIASNYVQWYQKRPGSAPSIVIYEDKQRPSGVPDRFSGSIDSSSNSASLTISGLKTEDEADYYCQSYNSRGVMFGGGTKLTVLG ... 0.6

As a next step, examine the binder that follows.
Prompt: Could you share which IC50 value was measured for Ab 553 (antibody, human IgG1, kappa, V domains shown, Fully human IgG1 kappa) VH: QVQLVQSGAEVKKPGASVKVSCKASGYTFTSYAMHWVRQAPGQRLEWMGWINAGNGNTKYSQKFQGRVTITRDTSASTAYMELSGLRSEDTAVYYCARGVDDYGGNSWAFDIWGQGTMVTVSS VL: DIVMTQSPLSLPVTPGEPASISCRSSQSLLHSNGYNYLDWYLQKPGQSPQLLIYLGSNRASGVPDRFTGSGSATDFTLRISRVEAEDVGVYYCMQALQTPLTFGGGTKVEIKR ?
Completion: 1.41
